Assay: growth suppression of yeast trafficking mutant, preliminary HTS, modulators of trafficking downstream of Golgi apparatus project, 1536-format plate, OD 615 nm (AID 637); further: test concentration not given here
Details: yeast transport mutant growth, absorbance 615 nm, 18 h; stronger effect = higher value
Could you please report measured inhibition for the items listed next?
Numbers only, in %.

Example results:
In [3]: df
Out[3]:
                                   compound  readout_units  test_result
0   CCN1CCN(Cc2ccccc2NC(=O)Nc2ccc(C)cc2)CC1              %        -0.16
1  COc1ccccc1N1CCN(C(=O)CSc2nc3ncnc(N)c3[nH]2)CC1              %        -1.31
2  COc1ccc(N2CCN(C(=O)Cc3ccc(-n4c(=O)[nH]c5ccccc5c4=O)cc3)CC2)cc1              %        -3.11
3  O=C(NC1CCCCC1NC(=O)c1ccco1)c1ccco1 (stereo unspecified)              %         3.27
4  COc1ccccc1N1CCN(C(=O)c2ccc3nc(-c4ccco4)c(-c4ccco4)nc3c2)CC1              %         -4.1

State the recorded inhibition for every item in the following list.
1. O=C(NC1CC1)c1ccc(S(=O)(=O)NCC2CCCCC2)cc1
2. CS(=O)(=O)N(CC(=O)Nc1cccc(F)c1)Cc1ccccc1

1. -0.32
2. 2.3

Measured values drawn from PubChem BioAssay for this set.
